target: NL63 main protease (Human coronavirus NL63)
Sequence (P0C6X5 2940-3242 limits assumed): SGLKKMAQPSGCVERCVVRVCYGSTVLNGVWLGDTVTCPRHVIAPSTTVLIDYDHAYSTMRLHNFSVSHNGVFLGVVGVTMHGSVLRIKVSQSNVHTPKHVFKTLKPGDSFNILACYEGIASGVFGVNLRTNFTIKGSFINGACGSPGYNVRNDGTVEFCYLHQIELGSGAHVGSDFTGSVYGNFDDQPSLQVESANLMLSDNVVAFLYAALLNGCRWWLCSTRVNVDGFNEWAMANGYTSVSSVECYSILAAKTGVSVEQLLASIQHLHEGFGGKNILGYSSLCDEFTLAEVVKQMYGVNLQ
Measured Metric: IC50 (µM)
Numbers only, in µM.

// field: IC50; key: CC(C)C[C@H](NC(=O)OCc1ccccc1)C(=O)N[C@@H](CC1CCNC1=O)C(O)S(=O)(=O)O (stereo partly shown) [GC376] ; value = 0.052
